Item-by-item account of growth
- Tested on: SK-OV-3 ovarian
- Protocol: NCI-60 one-dose screen, 48 h (100 = growth as untreated, 0 = no growth, -100 = all killed)
- Condition Summary: 10 µM unless noted
This is part of a sample that, as a whole, favours compounds with a hit. Of some 83,000 tested, about 20% had one in any assay.
Express your answer in %, writing the number without its unit.

Solved cases (5 shown):
Molecule | Tgt | Unit Tag | growth
C[C@]12CCc3sc(-c4cccc(F)c4)nc3C1=CC[C@@H]1[C@@H]2CC[C@]2(C)C(=O)CC[C@@H]12 | SK-OV-3 ovarian | % | 17.9
COC(=O)[C@@]1(C)CC[C@]2(C)CC[C@]3(C)C4=CC=C5C(=CC(=O)C(O)=C5C)[C@]4(C)CC[C@@]3(C)[C@@H]2C1 | SK-OV-3 ovarian | % | -97.6
CC(=O)O[C@H]1CC[C@]2(C)[C@H]3CC[C@]4(C)[C@@H](OC(C)=O)CC[C@H]4[C@@H]3[C@@H](C)[C@]2(O)C1 | SK-OV-3 ovarian | % | 117
COc1ccc(N(CC(=O)NCCC[Te]c2ccccc2)C(=O)CCSC2=C(C)C(=O)c3ccccc3C2=O)cc1 | SK-OV-3 ovarian | % | -55.6
COc1cc([N+](=O)[O-])c2nc(C)ccc2c1[N+](=O)[O-] | SK-OV-3 ovarian | % | 119

Problem: Please give the measured growth for this molecule: C[C@]12C[C@@H](CO)[C@H](O)C[C@@H]1CC[C@@H]1[C@@H]2CC[C@]2(C)[C@@H](O)CC[C@@H]12
Result: 106

Problem: Look up growth: O=C(O)c1c(Cl)n(Cc2ccc(O)cc2)c2ccc(O)cc12
Result: 115

----------
- System: UACC-62 melanoma
- Protocol: NCI-60 one-dose screen, 48 h (100 = growth as untreated, 0 = no growth, -100 = all killed)
- Condition Summary: 10 µM unless noted
Compounds without any hit were thinned out: in the full panel of roughly 83,000, 20% have a hit.
Response field label takes 1 when growth is strictly below 30% and -1 in all other cases.

Problem: Quick check: does COC(=O)[C@@H](C)C[C@H](Cc1ccccc1)NC(=O)c1csc([C@@H](C[C@H](C(C)C)N(C)C(=O)C2(NC(=O)[C@H]3CCCCN3C)CCC2)OC(C)=O)n1 have growth under 30%?
Result: -1

Problem: # check: growth < 30% for COc1ccc(C(O)(C(=O)O)c2ccc(OC)cc2)cc1
Result: -1

Problem: Identify whether the compound COP(=S)(N1CC1)N1CC1 records growth below 30%.
Result: -1

Problem: Is growth strictly under 30% for the entry C1CCC([PH+](C2CCCCC2)C2CCCCC2[PH+](C2CCCCC2)C2CCCCC2)CC1.[Au].[CH-]1CCCCC1CC1CCCC[N-]1 (stereo unspecified) ?
Result: 1

Problem: Answer whether the compound CCC[CH2][Sn]([CH2]CCC)([CH2]CCC)[O]c1ccc(Cl)cc1Cl has growth strictly less than 30%
Result: 1

Problem: Please state whether growth is below 30% for COC(=O)[C@@H](C)C[C@H](Cc1ccccc1)NC(=O)c1csc([C@@H](C[C@H](C(C)C)N(C)C(=O)[C@@H](NC(=O)[C@H]2CCCCN2C)C(C(F)(F)F)C(F)(F)F)OC(C)=O)n1
Result: 1

Problem: A record lists C[C@@]12CC=C3c4nc(Nc5cccc(O)c5)sc4CC[C@]3(C)[C@H]1CC[C@]1(C)C(=O)CC[C@@H]21 . Is its growth below 30%?
Result: 1

Problem: Say whether its growth is strictly beneath 30%. Entry: COC1OC(CO)C(O)C(O)[CH]1[Hg][O]C(C)=O (stereo unspecified)
Result: -1

Problem: Decide: growth of CCN(CC)c1ccc2c(c1)OC(N)=C(C#N)C2c1cc(OC)c2c(c1)OCO2 (stereo unspecified) strictly below 30%?
Result: -1

Problem: I wonder whether CC(=O)OC[C@]1(C)C=C2C(=O)[C@](C)(O)C3(CC3)C(C)=C2[C@H]1O has growth below 30%. Can you tell?
Result: 1

Problem: Input CC(=O)OC[C@]1(C)C=C2C(=O)[C@](C)(O)C3(CC3)C(C)=C2[C@H]1OC(=O)N(C)CCN(C)C(=O)OC(C)(C)C ; condition: growth strictly below 30%. Does it hold?
Result: 1

----------
- Test system: A498 renal
- Protocol: NCI-60 one-dose screen, 48 h (100 = growth as untreated, 0 = no growth, -100 = all killed)
- Condition Summary: 10 µM
This is part of a sample that, as a whole, favours compounds with a hit. Of some 83,000 tested, about 20% had one in any assay.
Measurement Type: growth (%)
Write the value in % as a bare number.

Example compounds with recorded growth:
Compound | Unit Tag | growth
O=C(CCl)c1ccc([N+](=O)[O-])o1 | % | 101
ClCCN(CCCl)c1nc(Cl)c(C2CC(c3ccccc3)=NN2c2cc(Cl)cc(Cl)c2)s1 (stereo unspecified) | % | 116
CCOC(=O)CCN(C)C1=Nc2ccc(Cl)cc2C(c2ccccc2)=[N+]([O-])C1 | % | 71.8

Problem: Consider the compound shown here: O=C1C2CC=CCC2C(=O)N1SC(Cl)(Cl)Cl (stereo unspecified) What is its recorded growth?
Result: 139

Problem: Any idea what its growth is? The compound is CCCC(C)C1(CC)C(=O)NC(=O)N(C)C1=O (stereo unspecified)
Result: 91.8

Problem: # query: growth of entry Cn1cc(C2=C(c3cn(C4CCN(Cc5ccccn5)CC4)c4ccccc34)C(=O)NC2=O)c2ccccc21
Result: 88.1

----------
- Tested on: UACC-62 melanoma
- Protocol: NCI-60 one-dose screen, 48 h (100 = growth as untreated, 0 = no growth, -100 = all killed)
- Condition Summary: 10 µM unless noted
This is part of a sample that, as a whole, favours compounds with a hit. Of some 83,000 tested, about 20% had one in any assay. Calls of active or inactive are those of the source. How the source made its calls: active means growth percent below 10; inactive means the rest.
Listing of entries alongside the reported growth.

See these solved cases before continuing.
Compound | Readout Value
O=[N+]([O-])/C=C\c1ccc(Cl)c(Cl)c1 | 58.9% (inactive)
Brc1ccc2c(c1)c(-c1nc(-c3c[nH]c4ncccc34)cs1)cn2CCN1CCCCC1 | 78.2% (inactive)
ClCCN(CCCl)c1nc(Cl)c(C2CC(c3ccccc3)=NN2c2cc(Cl)cc(Cl)c2)s1 (stereo not drawn) | 92.9% (inactive)
CC[C@H](C)[C@H](NC(=O)[C@H]1CCCCN1C)C(=O)N(C)[C@H](C[C@@H](OC(C)=O)c1nc(C(=O)N[C@@H](Cc2ccccc2)C[C@H](C)C(=O)OC)cs1)C(C)C | 43.6% (inactive)
C[C@]12CC[C@H]3[C@@H](C[C@@H]4SC(Nc5ccccc5)=N[C@@]45CC(O)CC[C@]35C)[C@@H]1CCC2O (stereo partly drawn) | 39.8% (inactive)

Problem: Could you tell me which growth is on file for ClCCN(CCCl)Cc1ccc(Nc2ccnc3cc(Cl)ccc23)cc1 ?
Result: 26.8% (inactive)

Problem: Could you tell me which growth is on file for O=C(Nc1ccc([N+](=O)[O-])cc1)C(Cl)(Cl)Cl ?
Result: 84.9% (inactive)

Problem: Sample COc1cc(C=Nc2cc(Cl)cc(Cl)c2)ccc1N(CCCl)CCCl — what was its growth?
Result: 82.9% (inactive)

Problem: What does the record list as growth for COc1cc([C@@H]2c3cc4c(cc3[C@H](OC(C)=O)[C@H]3COC(=O)[C@@H]23)OCO4)cc(OC)c1OC ?
Result: 18.5% (inactive)

Problem: Item under review: C=CCn1cc(C=C2C(=O)N(C)C(=O)N(C)C2=O)c2ccccc21 . Reported growth?
Result: 93.8% (inactive)

Problem: Dear colleague, I am looking for the recorded growth of the following compound: COC(=O)C1OC(Oc2ccc(N(CCCl)CCCl)cc2)C(OC(C)=O)C(OC(C)=O)C1OC(C)=O (stereo not drawn)
Result: 79.6% (inactive)

Problem: Item CCCCOc1ccc(C(N)Cc2ccccc2)cc1 (stereo not drawn) has what recorded growth?
Result: 105% (inactive)

Problem: Item CN1C(=O)C(=Cc2cn(Cc3ccccc3)c3ccccc23)C(=O)N(C)C1=O has what recorded growth?
Result: 34% (inactive)

----------
Each entry below lists one item and its recorded growth value.
- Test system: SN12C renal
- Protocol: NCI-60 one-dose screen, 48 h (100 = growth as untreated, 0 = no growth, -100 = all killed)
- Condition Summary: 10 µM unless noted
Compounds without any hit were thinned out: in the full panel of roughly 83,000, 20% have a hit. The source made the active and inactive calls. The calls were made as follows: active = growth percent below 10; inactive = the rest.

Solved entries:
Compound | Readout Value
COc1cccc(C=NC(Cc2cnc[nH]2)C(=O)O)c1O (stereo not given) | 97.5% (inactive)
CC1=C(CCCOC(=O)CN)C2=C(C)C3(CC3)[C@@](C)(O)C(=O)C2=C1 | 81.3% (inactive)
CC[C@H](NC(=O)[C@H]1CCCCN1C)C(=O)N(C)[C@H](C[C@@H](OC(C)=O)c1nc(C(=O)N[C@@H](Cc2ccccc2)C[C@H](C)C(=O)O)cs1)C(C)C | 17.1% (inactive)

Problem: Find the recorded growth belonging to CC(=O)C(c1c(O)c2ccccc2oc1=O)c1cc(=O)oc2c1ccc1ccccc12 (stereo not given) and report it.
Result: 87.1% (inactive)

Problem: Param item = O=C(CCl)c1ccc([N+](=O)[O-])o1 ; retrieve measured growth.
Result: -38.1% (active)

These entries and their values trace back to PubChem BioAssay (NCI).
